target: T1, FcRn-p3 fusion protein (human, UniProt P55899 24-297; P61769 21-119); assay: phage ELISA pH6 (est.)
T1 construct: baculovirus expressed; coated on ELISA wells; not shown: amino terminal part of bacteriophage p3 protein and CVDE protein
T1 sequence (P55899 24-297, chain 1 of 2): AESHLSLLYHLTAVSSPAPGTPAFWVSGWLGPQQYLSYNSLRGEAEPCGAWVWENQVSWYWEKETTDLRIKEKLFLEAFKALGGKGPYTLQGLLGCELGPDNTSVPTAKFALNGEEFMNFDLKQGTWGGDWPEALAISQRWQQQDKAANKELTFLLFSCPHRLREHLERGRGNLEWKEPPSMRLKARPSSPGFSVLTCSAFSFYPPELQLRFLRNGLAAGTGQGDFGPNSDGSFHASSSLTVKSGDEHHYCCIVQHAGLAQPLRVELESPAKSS
T1 sequence (P61769 21-119, chain 2 of 2): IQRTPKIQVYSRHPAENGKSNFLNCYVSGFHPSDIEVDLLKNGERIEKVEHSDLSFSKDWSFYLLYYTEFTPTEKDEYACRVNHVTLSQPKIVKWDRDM
Listed next: entries and their corresponding Ratio/FWT.
quantityKind: Ratio/FWT

INSERT INTO measurements (binder, quantitykind, result) VALUES
  ('C5A_03 (other, EU numbering) CPPCPAPELLGGPSVFLFPPKPKDTLMISRTPEVTCVVADVSHEDPEVKFNWYVDGVEVHNAKTKPREEQYNSTYRVVSVLTVLHQDWLDGKEYKCKVSNKALPAPIEKTISKAKGQPREPQVYTLPPSRDELTKNQVSLTCLVKGFYPSDIAVEWESNGQPENNYKTTPPVLDSDGSFFLYSKLTVDKSRWQQGNVFSCSVMHEALHYHYTQKSLSLSPGK', 'Ratio/FWT', '8.7 fold'),
  ('T5A_90 (other, EU numbering) CPPCPAPELLGGPSVFLFPPKPKDTLMISRTPEVTCVVVDVSHEDPEVKFNWYVDGVEVHNAKTKPREEQYNSTYRVVSVLTVLHQDWLDGKEYKCKVSNKALPVPIEKTISKAKGQPREPQVYTLPPSRDELTKNQVSLTCLVKGFYPSDIAVEWESNGQPENNYRTTPPVLDSDGSFFLYSKLTVDKSRWQQGNVFLCSVMHEALHYHYTQKSLSLSPGK', 'Ratio/FWT', '5.7 fold'),
  ('C6A_72 (other, EU numbering) CPPCPAPELLGGPSVFLFPPKPKDALMISRTPEVTCVVVDVSHEDPEVKFNWYVDGVEVHNAKTKPREEQYNSTYRVVSVLTVLHQDWLNGKEYKCKVSNKALPAPIEKTISKAKGQPREPQVYTLPPSRDELTKNQVSLTCLVKGFYPSDIAVEWESNGQPEKNYKTTPPVLDSDGSFFLYSKLTVDKSRWQQGNVFSCSVMHEALHYHYTQKSLSLSPGK', 'Ratio/FWT', '25.7 fold');
